Biological target: Delta-type opioid receptor (Homo sapiens, UniProt P41143)
Sequence (P41143 whole entry): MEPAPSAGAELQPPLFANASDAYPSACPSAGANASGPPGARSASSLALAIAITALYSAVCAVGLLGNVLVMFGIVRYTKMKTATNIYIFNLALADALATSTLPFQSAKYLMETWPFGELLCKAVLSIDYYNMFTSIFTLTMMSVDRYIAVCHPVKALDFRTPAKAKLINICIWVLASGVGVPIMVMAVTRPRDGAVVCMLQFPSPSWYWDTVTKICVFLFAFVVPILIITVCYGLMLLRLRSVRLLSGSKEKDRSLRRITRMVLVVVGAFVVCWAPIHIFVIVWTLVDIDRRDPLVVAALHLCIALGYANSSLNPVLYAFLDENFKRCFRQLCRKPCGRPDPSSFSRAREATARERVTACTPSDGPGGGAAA
Assay: Displacement of [3H]naltrindole from human delta opioid receptor expressed in CHO cells
readout kind: Ki

C[C@H]1C2Cc3ccc4c(NCc5ccccc5)ncnc4c3[C@@]1(C)CCN2CC1CC1 (mixture of isomers) = 1500 nM
C[C@H]1C2Cc3cc4cc[nH]c(=O)c4cc3[C@@]1(C)CCN2CC1CC1 (mixture of isomers) = 74 nM
C[C@H]1C2Cc3cc4ncnc(NCc5ccccc5)c4cc3[C@@]1(C)CCN2CC1CC1 (mixture of isomers) = 1000 nM
C[C@H]1C2Cc3ccc4c(NCCc5ccc(-c6ccccc6)cc5)ncnc4c3[C@@]1(C)CCN2CC1CC1 (mixture of isomers) = 52 nM

Record for C[C@H]1C2Cc3cc([N+](=O)[O-])c(O)cc3[C@@]1(C)CCN2CC1CC1 (mixture of isomers) under target or system Delta-type opioid receptor (Homo sapiens, UniProt P41143): Ki reported as > 10000 nM

----------
In this section we review reported pIC50 values for a set of compounds.
Target: Mu-type opioid receptor (Homo sapiens, UniProt P35372)
Sequence (P35372 whole entry): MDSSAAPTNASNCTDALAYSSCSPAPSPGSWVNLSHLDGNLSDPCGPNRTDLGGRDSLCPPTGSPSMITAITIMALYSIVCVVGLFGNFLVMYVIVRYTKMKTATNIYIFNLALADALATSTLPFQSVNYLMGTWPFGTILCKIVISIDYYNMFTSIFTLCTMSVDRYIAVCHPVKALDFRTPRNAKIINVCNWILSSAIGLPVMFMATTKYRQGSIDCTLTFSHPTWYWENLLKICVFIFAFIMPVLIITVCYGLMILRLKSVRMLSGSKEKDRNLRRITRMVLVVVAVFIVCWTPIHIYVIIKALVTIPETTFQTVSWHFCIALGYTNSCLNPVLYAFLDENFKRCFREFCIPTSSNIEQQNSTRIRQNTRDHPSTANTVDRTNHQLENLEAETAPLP
Assay: Antagonist activity at human mu opioid receptor expressed in CHO cells assessed as inhibition of DAMGO-stimulated [35S]GTPgammaS binding
Remember, pIC50 is on a log scale: it is -log10 of the molar concentration.

C[C@H]1C2Cc3ccc4c(N)ncnc4c3[C@@]1(C)CCN2CC1CC1 (mixture of isomers) = 7.55
C[C@H]1C2Cc3cc4cc[nH]c(=O)c4cc3[C@@]1(C)CCN2CC1CC1 (mixture of isomers) = 6.07

Switching to the query record.
The compound C[C@H]1C2Cc3ccc(C(N)=O)c(N)c3[C@@]1(C)CCN2CC1CC1 (mixture of isomers) showed pIC50 equal to 7.51

----------
Target: UniProtKB P41145
Sequence (P41145 whole entry): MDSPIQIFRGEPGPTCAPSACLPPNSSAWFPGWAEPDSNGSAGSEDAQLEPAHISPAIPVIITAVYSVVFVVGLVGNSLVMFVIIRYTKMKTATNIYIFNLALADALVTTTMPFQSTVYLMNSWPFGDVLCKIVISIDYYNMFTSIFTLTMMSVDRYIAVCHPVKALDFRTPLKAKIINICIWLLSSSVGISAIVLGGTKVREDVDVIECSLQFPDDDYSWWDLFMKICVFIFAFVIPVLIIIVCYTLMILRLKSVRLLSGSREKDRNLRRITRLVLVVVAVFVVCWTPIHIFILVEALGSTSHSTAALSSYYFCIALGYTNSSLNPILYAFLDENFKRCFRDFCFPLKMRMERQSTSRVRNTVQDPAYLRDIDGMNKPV
Assay: Displacement of [3H]U69,593 from human kappa opioid receptor expressed in CHO cells
Format: cell-based
Some compounds, each annotated with its measured Ki.
Your answer is read as nM, so omit the unit and give the number.

Below, 5 compounds whose answers are already recorded.
C[C@H]1C2Cc3ccc4c(NCCc5ccc(-c6ccccc6)cc5)ncnc4c3[C@@]1(C)CCN2CC1CC1 (mixture of isomers) = 8.6
C[C@H]1C2Cc3cc([N+](=O)[O-])c(O)cc3[C@@]1(C)CCN2CC1CC1 (mixture of isomers) = 580
C[C@H]1C2Cc3ccc4c(NCc5ccccc5)ncnc4c3[C@@]1(C)CCN2CC1CC1 (mixture of isomers) = 240
C[C@H]1C2Cc3ccc(C(N)=O)c([N+](=O)[O-])c3[C@@]1(C)CCN2CC1CC1 (mixture of isomers) = 34
C[C@H]1C2Cc3ccc(O)c([N+](=O)[O-])c3[C@@]1(C)CCN2CC1CC1 (mixture of isomers) = 3.2

Record summary for C[C@H]1C2Cc3cc4cc[nH]c(=O)c4cc3[C@@]1(C)CCN2CC1CC1 (mixture of isomers) : reported Ki = 0.74

Form: compound = C[C@H]1C2Cc3cc4ncnc(NCCc5ccc(-c6ccccc6)cc5)c4cc3[C@@]1(C)CCN2CC1CC1 (mixture of isomers) ; Ki = 140

Looking up C[C@H]1C2Cc3ccc(C(N)=O)c(N)c3[C@@]1(C)CCN2CC1CC1 (mixture of isomers) , I found its Ki recorded as 0.7

----------
Target: Mu-type opioid receptor (Homo sapiens)
# pKi values compiled below
Quick note: pKi values are minus log10 of concentrations in mol/L.

Recorded pKi, per entry:
C[C@H]1C2Cc3ccc4c(N)ncnc4c3[C@@]1(C)CCN2CC1CC1 (mixture of isomers) = 9.26
C[C@H]1C2Cc3ccc(C(N)=O)c([N+](=O)[O-])c3[C@@]1(C)CCN2CC1CC1 (mixture of isomers) = 7.70
C[C@H]1C2Cc3cc4ncnc(N)c4cc3[C@@]1(C)CCN2CC1CC1 (mixture of isomers) = 6.05

Let me check: C[C@H]1C2Cc3cc([N+](=O)[O-])c(O)cc3[C@@]1(C)CCN2CC1CC1 (mixture of isomers) , system Mu-type opioid receptor (Homo sapiens), measured pKi is 5.42

Summary line: C[C@H]1C2Cc3ccc(C(N)=O)c(N)c3[C@@]1(C)CCN2CC1CC1 (mixture of isomers) , Mu-type opioid receptor (Homo sapiens), reported pKi = 9.26
